- Tested on: EKVX
- test: NCI tumour cell line growth inhibition, 48 h
Activity calls are given as the source filed them. Cut-off read from the data, not from the text of the source: active = GI50 up to about 1.1 µM and inactive = higher.
measured property: GI50

Recorded GI50 (molecule COc1ccc2c(c1)nc1n2C(c2c(F)cccc2Cl)SC1 (stereo not given) ): 26.1 µM (inactive)

The reported GI50 of the molecule O=C(Nc1ccc(Cl)cc1)NS(=O)(=O)c1c(-c2ccccc2)oc2ccccc2c1=O was > 100 µM (inactive)

So for N#Cc1sc2c(c1OC(=O)c1ccc(Cl)cc1Cl)c(=O)n(-c1ccccc1)c(=S)n2-c1ccccc1 , the logged GI50 turned out to be 31.8 µM (inactive)

Reported GI50 ( CCOC(=O)c1nc2cc(C(F)(F)F)ccc2nc1Oc1ccc(F)cc1 ) = > 100 µM (inactive)

Documented GI50 of CCCCOC(=O)NC(=O)c1cn(CCCOC(=O)NCCCCCCNC(=O)OCCCn2cc(C(=O)NC(=O)OCCCC)c(=O)[nH]c2=O)c(=O)[nH]c1=O : > 100 µM (inactive)

# GI50 of C=CCCC1CCCCNC1=S (stereo not given) = > 10 µM (inactive)

The reported GI50 of the molecule Cc1ccc(N(C=O)c2c([N+](=O)[O-])cc([N+](=O)[O-])c3c2=[N+]([O-])CN=3)cc1 was > 100 µM (inactive)

Given item Cc1c(C)c2cc3c(=O)ccoc3c(C)c2oc1=O , the value recorded as its GI50 is > 100 µM (inactive)

Form: molecule = CCCCCCCCCCCCCCCC(=O)ON1C(=S)NC(C)(c2ccccc2)C1=S (stereo not given) ; GI50 = > 100 µM (inactive)

In plain terms, CN(C)CCC(=O)/C=C\c1ccccc1 has a documented GI50 of 18.7 µM (inactive)

molecule S=C1NC2=C(COC/C2=C\c2ccccc2Cl)C(c2ccccc2Cl)N1 (stereo not given) , GI50 observed: 33.2 µM (inactive)

GI50 reading for COc1ccc2c(C)cc(N/N=C/c3sccc3C)nc2c1 : > 10 µM (inactive)

Notebook: O=C(Cc1ccccc1)NN1C(=O)C(Cl)C1c1cc(Br)ccc1O (stereo not given) , GI50 read as 3.03 µM (inactive)

What the record says about NC(=O)N/N=C(/Cc1nc2ccc(C(=O)c3ccccc3)cc2nc1O)C(=O)Nc1ccc(C(F)(F)F)cc1[N+](=O)[O-] : GI50 is 14.2 µM (inactive)

Kindly note the recorded GI50 for O=C(/C=C/c1ccc(O)cc1)c1ccc2c(c1)OCO2 , which is 36.2 µM (inactive)

# GI50 (molecule: Cc1cc(C)c([S@@](=O)O[C@@H]2[C@H]3OC(C)(C)O[C@H]3O[C@@H]2[C@H]2COC(C)(C)O2)c(C)c1 ) is 20.4 µM (inactive)

Looking up COc1ccc(N2C(=O)C3C=CC(n4[nH]c(=O)n(Cc5ccccc5)c4=O)CC3C2=O)cc1 (stereo not given) , I found its GI50 recorded as > 100 µM (inactive)

// GI50 lookup, molecule = CCOC(=O)CC(NC(=O)c1ccc(/N=N/N(C)C)cc1)C(=O)OCC (stereo not given) , result: > 100 µM (inactive)

GI50 reported for this molecule COc1ccc(NC(=O)CC(=O)N2N=C(N3CCCCC3)CC2c2ccccc2)cc1 (stereo not given) : > 100 µM (inactive)

CC1(C)OC(=O)C(=Cc2ccc(O)cc2)C(=O)O1 has a reported GI50 of > 100 µM (inactive)

* * *

- Test system: SNB-75
- test: NCI tumour cell line growth inhibition, 48 h
Calls of active or inactive are those of the source. Rule as the data show it: active = GI50 up to about 1.1 µM and inactive = higher.
Each entry below carries its reported GI50.

# compound, measured property, assay result
rows = [
    ("O=C1Sc2cc3ccccc3cc2C(=O)Sc2ccc(Br)cc21", "GI50", "4.84 µM (inactive)"),
    ("CCOC(=O)c1c(-c2cccc3ccccc23)c(C#N)c(=S)n(C2OC(COC(C)=O)C(OC(C)=O)C(OC(C)=O)C2OC(C)=O)c1C (stereo unspecified)", "GI50", "13.7 µM (inactive)"),
    ("O=S(=O)(O)c1ccc2c(/N=N/c3c(O)ccc4ccccc34)cccc2c1", "GI50", "> 100 µM (inactive)"),
    ("CCOC(=O)/C(C#N)=C/c1ccnc2ccccc12", "GI50", "> 100 µM (inactive)"),
]

The measured GI50 associated with Cc1c(Cl)cccc1NC(=O)/C=C/c1ccccc1 reads 22.8 µM (inactive)

Lookup result for CNC(=S)NN=C1NCCCN1 ; measured GI50: > 100 µM (inactive)

GI50 measured on COc1cccc(Nc2nc3c([nH]2)c(=O)n(C)c(=O)n3C)c1 = > 10 µM (inactive)

Entry O=C1CC(c2ccccc2)[S+]([O-])c2ccccc2N1 (stereo unspecified) , GI50 reported as > 100 µM (inactive)

GI50 recorded for this compound, O=C1OCCC[C@H]2O[C@@H](COCc3ccccc3)C[C@@H]12 , is > 100 µM (inactive)

For NC(=O)N/N=C(/Cc1nc2ccc(C(=O)c3ccccc3)cc2nc1O)C(=O)Nc1ccc(C(F)(F)F)cc1[N+](=O)[O-] the compound record lists GI50 as 26 µM (inactive)

The reported GI50 of the compound Clc1nc(-c2ccccc2)nc(Cl)c1Cl was 15.7 µM (inactive)

Data point: COc1ccc(/N=C/c2ccc(N(CCC#N)S(=O)(=O)c3ccccc3)cc2)cc1 ; GI50 = > 100 µM (inactive)

Entry CO/C(=N/N1CC1C(F)(F)F)c1ccncc1 (stereo unspecified) , GI50 reported as > 100 µM (inactive)

GI50 reported for this compound CC(=O)O/C=C\OC1CCCC1(c1ccccc1)c1ccccc1 (stereo unspecified) : 3.35 µM (inactive)

Per the record, COc1nc(N)nc2nc[nH]c12 has GI50 of 208 µM (inactive)

GI50 for C=C(Br)C[N+]12CN3CN(CN(C3)C1)C2 is > 100 µM (inactive)

* * *

Heads up, these compounds all have log10 GI50 values measured for HCT-15.
Friendly reminder: values = log10 of GI50, unit µM.

# compound, log10 GI50
data = [
    ("Clc1nc(-c2ccccc2)nc(Cl)c1Cl", 0.87),
    ("O=C(/C=C1\\C[C@H]2C=Nc3ccccc3C(=O)N2C1)NCCCNC(=O)/C=C1\\C[C@H]2C=Nc3ccccc3C(=O)N2C1", 1.26),
    ("COc1ccccc1C(O)[C@@H]1C[C@@H]2[C@H]3CC[C@@](C)([C@@H]2O1)C3(C)C (stereo partly drawn)", 1.32),
    ("N#CC(C#N)=CNC(=S)c1ccncc1", 1.57),
    ("C[C@]12CC[C@@H]3c4cc(OCC(F)(F)F)c(O)cc4CC[C@H]3[C@@H]1CC[C@@H]2O", -0.12),
]

Record Cc1cccc2c(N)c3cccc(C(=O)NCC[N+]4(Cc5ccc([N+](=O)[O-])cc5)CCOCC4)c3nc12 ; system HCT-15; log10 GI50 = 1.65

log10 GI50 for HCT-15 with input N#Cc1c(N)nc2[nH]nc(N)c2c1-c1ccccc1 equals 0.73

Let me check: CC1=C(C(=O)Nc2ccc(Cl)c(Cl)c2)C(c2ccco2)C(C(=O)Nc2ccc(Cl)c(Cl)c2)=C(C)N1 , system HCT-15, measured log10 GI50 is 1.06

Response field log10 GI50 (HCT-15) for item O=C(Nn1c(-c2cccs2)nc2ccc(I)cc2c1=O)c1ccccc1 : 1.49

Reported HCT-15 log10 GI50 for item O=c1[nH]c2c(c(=O)[nH]1)SSC2 was 1.44

The compound COC(=O)[C@@]12OC[C@]34C([C@@H](O)C1O)[C@@]1(C)CC(=O)C(OC(=O)/C=C(/c5ccccc5)C(F)(F)F)=C(C)C1C[C@H]3OC(=O)[C@H](O)[C@H]42 (stereo partly drawn) , when measured on HCT-15, yielded log10 GI50 of 1.38

Fill in: HCT-15 log10 GI50 for OC1COC(n2c3ccc(Br)cc3c3ccc4c5ccccc5[nH]c4c32)C(O)C1O (stereo not drawn) = 0.53

Reported log10 GI50 (HCT-15) for entry CO[C@@H]1O[C@H](C(=O)c2ccccc2)[C@H]2OC(C)(C)O[C@@H]12 is 1.74

CCCCCCCSCC1C(=O)C23C(O)C1CCC2C12COC3(O)C(O)C1C(C)(C)CCC2O (stereo not drawn) on HCT-15 gives log10 GI50 = 0.96

HCT-15 data for Nc1cc2c(C3OC(CO)C(O)C3O)n[nH]c2c(=S)[nH]1 (stereo not drawn) ; its log10 GI50: 1.97

Recorded log10 GI50 for CC(=O)n1cc(OP(=O)(Oc2ccccc2)Oc2ccccc2)c2ccccc21 on HCT-15 was 1.46

Given the compound Cc1ccc([N+](=O)[O-])cc1/N=N/C(=O)NNc1cc([N+](=O)[O-])ccc1C and test system HCT-15, the measured log10 GI50 is 1.34

// assay HCT-15, entry CC(C)=CCC[C@H](C)[C@H]1CC[C@@H](C)c2cc(O)c(C)cc21 , log10 GI50 value = 1.26

With HCT-15 as the test system, C=C(CS(=O)(=O)c1ccccc1)C(=O)OCC showed log10 GI50 of 1.10

Form field log10 GI50 for item COc1nc(N)nc2nc[nH]c12 on HCT-15: 2.65

Where do these numbers come from? They come from ChEMBL document CHEMBL1201862.
